- Measured on: UDP-N-acetylglucosamine--peptide N-acetylglucosaminyltransferase 110 kDa subunit (Homo sapiens) (UniProt O15294)
- Sequence (O15294 whole entry, looked up): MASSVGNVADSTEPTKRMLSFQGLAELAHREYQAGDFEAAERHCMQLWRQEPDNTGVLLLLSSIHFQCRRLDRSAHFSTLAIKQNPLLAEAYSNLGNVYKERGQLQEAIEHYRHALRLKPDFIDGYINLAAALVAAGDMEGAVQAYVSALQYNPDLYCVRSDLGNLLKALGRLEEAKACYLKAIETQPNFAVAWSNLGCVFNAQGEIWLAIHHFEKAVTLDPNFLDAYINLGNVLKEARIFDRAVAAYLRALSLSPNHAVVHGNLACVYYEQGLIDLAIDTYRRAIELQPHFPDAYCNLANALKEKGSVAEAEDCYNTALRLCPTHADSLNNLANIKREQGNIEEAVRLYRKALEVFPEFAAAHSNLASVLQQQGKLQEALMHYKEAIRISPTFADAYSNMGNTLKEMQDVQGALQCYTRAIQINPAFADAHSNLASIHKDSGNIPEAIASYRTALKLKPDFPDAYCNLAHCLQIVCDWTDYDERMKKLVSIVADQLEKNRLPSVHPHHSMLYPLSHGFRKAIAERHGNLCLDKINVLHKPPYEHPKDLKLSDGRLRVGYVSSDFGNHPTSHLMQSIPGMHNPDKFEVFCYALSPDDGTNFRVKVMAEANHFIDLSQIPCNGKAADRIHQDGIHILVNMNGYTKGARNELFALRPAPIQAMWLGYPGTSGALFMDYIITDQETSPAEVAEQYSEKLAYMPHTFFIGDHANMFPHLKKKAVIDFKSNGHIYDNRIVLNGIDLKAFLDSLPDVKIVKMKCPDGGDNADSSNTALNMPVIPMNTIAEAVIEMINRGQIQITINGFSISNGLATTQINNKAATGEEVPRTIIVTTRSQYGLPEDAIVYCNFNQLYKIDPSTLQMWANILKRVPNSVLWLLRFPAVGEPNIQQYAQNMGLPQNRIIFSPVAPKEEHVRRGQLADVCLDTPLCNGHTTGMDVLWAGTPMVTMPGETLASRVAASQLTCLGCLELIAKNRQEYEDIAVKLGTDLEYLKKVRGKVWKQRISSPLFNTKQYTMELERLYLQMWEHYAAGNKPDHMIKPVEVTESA
- Assay overview: O-Glc NAc Transferase (sOGT)
- Assay context: sOGT fluorescence polarization UDP-GlcNAc probe displacement
The campaign covered roughly 69,000 compounds. Fewer than 10 were called active. Not shown: some 100% with an inconclusive outcome. The list shows a part of the results.
Attribute measured: Potency

1. Cc1cc(-c2ccc(N=Nc3ccc4c(S(=O)(=O)O)cc(S(=O)(=O)O)c(N)c4c3O)c(C)c2)ccc1N=Nc1ccc2c(S(=O)(=O)O)cc(S(=O)(=O)O)c(N)c2c1O	43.7 µM (active)

Dear colleague, could you send me Potency for each of the items below? Thanks.
1. O=C(O)C1=CC(=C(c2ccc(O)c(C(=O)O)c2)c2ccc(O)c(C(=O)O)c2)C=CC1=O
2. CCCCCCCCCCCCC/C=C\[C@@H](O)[C@H](CO)NC(C)=O
3. Nc1c(S(=O)(=O)O)cc(Nc2ccc(Nc3nc(Cl)nc(Nc4ccc(S(=O)(=O)O)cc4)n3)c(S(=O)(=O)O)c2)c2c1C(=O)c1ccccc1C2=O

[reply]
1. 21.8 µM (active)
2. 25.2 µM (active)
3. 22.3 µM (active)

Data credit: PubChem BioAssay AID447
